Sourced from PubChem BioAssay (NCI)

- Measurement notes: NCI Yeast Anticancer Drug Screen. Data for the rad50 strain (AID 155);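 also: 0% = growth of vehicle-only cultures of the same strain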
- Measurement conditions: S. cerevisiae rad50 strain growth inhibition, active compounds read high; at 50.0 µM unless noted
This is part of a sample that, as a whole, favours compounds with a hit. Of some 79,000 tested, about 15% had one in any assay.
Endpoint label: growth inhibition (%)
Please respond with the number in % and leave the unit unwritten.

In the examples that follow, each entry is paired with its recorded growth inhibition.
# Compound, growth inhibition (%)
records = [
    ("Cn1cnc([N+](=O)[O-])c1Sc1ncc[nH]1", 1.3),
    ("CCOC(=O)/N=N/C(C)(C)OC(C)=O", -10.5),
    ("COc1ccc2c(c1OC(C)=O)-c1cc(OC(C)=O)cc3c1C(C2)N(C(=O)CBr)CC3 (configuration not stated)", 62),
    ("Clc1cccc(Nc2ncnc3nc[nH]c23)c1", 7.15),
    ("Nc1cccc(OCCCCCOc2cccc(N)c2)c1", -35.1),
    ("CCOC(=O)N1CCc2cc(OC)c(OC)cc2C1Cc1ccc(OC)c(OC)c1 (configuration not stated)", -2.2),
    ("CS(=O)(=O)OCC1OC(n2ncc(=O)[nH]c2=O)C(O)C1O (configuration not stated)", 6.9),
    ("O=C1c2cccc3c([N+](=O)[O-])ccc(c23)C(=O)N1Cc1cccnc1", 99.3),
]

[Q] Reported growth inhibition for O=C(c1ccc(Cl)cc1)c1ccc(OCCCOc2ccc(C(=O)c3ccc(Cl)cc3)cc2Cl)c(Cl)c1 : what is it?
[A] 9.55

[Q] Reported growth inhibition for Oc1cc(Cl)cc2cccnc12 : what is it?
[A] 87.8

[Q] Reported growth inhibition for Cc1nc(C(N)=S)sc1C(=O)C/C(=N/N)C(=O)Nc1ccc(Cl)cc1 : what is it?
[A] 2.05

[Q] Reported growth inhibition for CC1(c2nc3ccccc3[nH]2)CCC(C(N)=O)C(C)(C)O1 (configuration not stated) : what is it?
[A] 1.5
